melting point listing for selected compounds.

Compound | melting point
Oc1ccc(-c2cccc3sc4ccccc4c23)cc1 | 117 to 119 °C
CCCCn1cc(C(=O)C(=O)O)c2cc(-c3ccc(Cl)cc3)ccc21 | 136 to 137 °C
Cc1c(C)c2c(c(C)c1OCCc1ccccc1)C(c1ccc(C(C)C)cc1)C(C)(C)O2 (stereo not given) | 72 to 74 °C
CCNC1=C(c2ccc(O)cc2)C(=O)c2cc(O)ccc21 | 250 °C

Input: melting point lookup needed for "COCOc1c(CCO)c(OC)c(OCOC)c(CCCCCc2c(OC)c(OCOC)c(CCO)c(OC)c2OCOC)c1OC" , thanks.
Output: 68 to 70 °C

* * *

Listed here are molecules together with their documented melting point.

Input: Look up melting point: "C=CCc1cc(C(=O)OCC)ccc1NC(C)=O"
Output: 127 to 128 °C

Input: Which melting point value is on record for "CCOC(=O)c1c(C(F)(F)F)nc(C(F)F)c(C(=O)OC)c1NCC#N" ?
Output: 87 to 89 °C

Input: State the recorded melting point for this entry: CNC1Oc2cc(Cl)cc(-c3ccc(Cl)cc3Cl)c2O1 (stereo not given)
Output: > 250 °C

Input: Quick one: melting point of "CCNC(=O)C=CC(C)=CC=C(C)c1ccc2c(c1)C(C)(C)CCC2(C)C" ?
Output: 150 to 159 °C

Input: GET /values?readout=melting point&item= "Cc1c(C=O)c2cc(Br)ccc2n1-c1ccc(O)cc1"
Output: > 250 °C

Input: Which melting point is listed for "NC(=O)N(O)CCNC(=O)c1cccc(Oc2ccc(Cl)c(Cl)c2)c1" ?
Output: 153 to 156 °C

Input: Form field: reported melting point of "O=C(O)c1cc2cc(Cl)c(Cl)cc2nc1N[C@@H](Cc1ccccc1)C(=O)O"
Output: 141 to 143 °C

* * *

Below is a list of entries, each paired with its recorded melting point value.

Recorded melting point, per entry:
Compound | melting point
O=C(O)c1ccc(NCCc2ccc(OCc3ccccc3)cc2)cc1 | 180 to 185 °C
COc1ccc2c(c1)c(C=C1SC(=S)N(CC(=O)O)C1=O)c(C)n2C(=O)c1ccc(Cl)cc1 | 204 to 208 °C
COc1ccc(-c2[nH]c(-c3ccc(N)c(C)c3)nc2C(=O)Nc2nccs2)cc1 | > 250 °C

Input: # melting point lookup, item C#Cc1cn(C2CC(O)C(COC(c3ccccc3)(c3ccccc3)c3ccccc3)O2)c(=O)[nH]c1=O (centres undefined)
Output: 110 °C

* * *

Quick reference: melting point of the listed items.

Use these answered entries as a reference point.
Compound | melting point
N#CSCC(I)=C(I)CSC#N | 190 °C
O=C(NCc1ccc(F)cc1)c1cn2nc(N3CCN(C(=O)c4ccccc4C(F)(F)F)CC3)ccc2n1 | 205 to 207 °C
Cc1ccnc2c1C(=O)CC(c1cccs1)C2 (configuration not stated) | 105 to 107 °C

Input: Data request, read-out melting point, for "CC(C)n1nc(-c2c(-c3ccccc3)nc(N)nc2N2CCCC2)ccc1=O"
Output: > 300 °C

Input: State the recorded melting point for this entry: "Cc1cc2c(C)cc(=O)oc2cc1O"
Output: 273 °C

Input: melting point lookup needed for "CCS(=O)(=O)Nc1ccc(F)c(N)c1" , thanks.
Output: 106 to 108 °C

Input: Report melting point for "C=CCOC(=O)COc1cccc(NC(=O)NCNC(=O)c2ccccc2C(=O)c2ccccc2)c1" please.
Output: 147 to 149 °C

Input: Which value of melting point has been reported for CN(C)C1Cc2cc(Br)cc([N+](=O)[O-])c2NC1=O (configuration not stated) in the records?
Output: 162 to 165 °C

* * *

This listing pairs compounds with measured melting point.

See these solved cases before continuing.
Compound | melting point
CN(Cc1cc2c(=O)c(C(=O)NCc3ccc(Cl)cc3)cn(C)c2o1)CC(O)c1nccs1 (centres undefined) | 114 to 116 °C
COC(COC(=O)C1=C(C)NC2=C(C(=O)CNC2)C1c1cccc(Cl)c1)c1ccccc1 (centres undefined) | 165 to 167 °C

Input: Recorded melting point for "Cc1nc(C(F)(F)F)ccc1C(=O)C1=C(O)C(C)(C)CCC1=O" , please?
Output: 75 to 77 °C

Input: Please look up its melting point: "Cc1ccc(-n2nc(-c3ccc(O)cc3)c3cccnc32)cc1"
Output: 201 to 203 °C

Input: Quick one: melting point of "Cc1ccc(Oc2nsnc(Cl)c2=O)cn1" ?
Output: 155 to 156 °C

* * *

Experimental endpoint: melting point

Reference set (3 entries):
Compound | melting point
N#CC1(C(O)(Cn2cncn2)c2ccccc2)CC1 (stereo not given) | 103 to 105 °C
N#Cc1c(N2CCc3ccccc3CC2)nc(CO)n(CC(F)(F)F)c1=O | 181 to 185 °C
NC(=O)CCCN(CCCC1CCCCC1)C(=O)Nc1ccccc1 | 104 to 106 °C

Input: Look up melting point: "O=C1Cc2cc(Br)ccc2O1"
Output: 147 to 148 °C

Input: Look at this compound and give its reported melting point. "Cc1c[nH]c(-c2nc([C@H]3CCCN(C(=O)c4ccc(F)cc4)C3)no2)c1"
Output: 183 °C

Input: Please look up its melting point: "FC(F)(F)c1cc(Nc2nnc(CCCc3cccnc3)c3ccccc23)ccc1Cl"
Output: 142 °C

Input: Given the entry "O=C(O)CN1C(=O)c2ccc(C(=O)O)cc2C1=O" , report its measured melting point.
Output: 262 to 265 °C

Input: I have this compound here, "C[Si]1(C)CCCCCCCCCCCCCC[Si](C)(C)O[Si](C)(C)CCCCCCCCCCCCCC[Si](C)(C)O1" , and I need its recorded melting point.
Output: 97 °C

Input: Suppose we examine the compound "COc1ccnc2[nH]cc(-c3ccnc(N)n3)c12" ; what melting point value has been reported?
Output: > 210 °C

* * *

melting point: recorded values

Molecule | melting point
O=[N+]([O-])CC(O)c1nn(Cc2ccccc2)c2ccccc12 (configuration not stated) | 100 to 101 °C

Input: # input molecule: "COc1cc(Br)ccc1Oc1ccccc1O" ; wanted: its melting point
Output: 107 to 109 °C

Input: Name the recorded melting point for COc1ccc(CN2C(=O)CC2C(=O)O)c(OC)c1 (configuration not stated) .
Output: 124 to 125 °C

Input: Returns the measured melting point for the input molecule. Input: "Cc1ccn(-c2ccc(Cl)c(Cl)c2)n1"
Output: 46 to 47 °C

Input: Quick one: melting point of "CCCCOC(=O)CCCOc1ccc(F)c(C(N)=O)c1F" ?
Output: 53 to 55 °C

Input: Bench note: what melting point did "O=C(O)c1ccccc1Nc1ccc(CCCc2ccc(Cl)c(Cl)c2)cc1" show?
Output: 120 to 126 °C

Input: Any idea what melting point was measured for "O=C(CCC1CCCC1)Nc1ccc2ncn3c(=O)c(C(=O)O)cnc3c2c1" ?
Output: 279 to 283 °C

Input: Endpoint output: melting point of "COc1ccc(C(=O)N2CSCC2=O)cc1" . Value?
Output: 123 to 124 °C

Input: So what does the record say about melting point for "COc1nc(Nc2ccc(F)cc2F)c(C(=O)O)cc1F" ?
Output: 237 to 240 °C

* * *

Experimental endpoint: melting point

Compound | melting point
Cc1sc(N)c(C(=O)c2ccc(Cl)s2)c1C | 125 to 127 °C
COc1cccc(CC2CCCc3cc(OCc4ccccc4)c(OC)cc3N2)c1 (stereo not given) | 92 to 93 °C

Input: Please look up its melting point: C=CCN1CC(c2ccc([N+](=O)[O-])cc2F)CCS1(=O)=O (stereo not given)
Output: 121 °C

Input: Consider the compound "CC(C)(C)OC(=O)NCC1CN(C(c2ccccc2)c2ccccc2)C1" and give its measured melting point.
Output: 108 to 110 °C

Input: Fill blank: measured melting point of the compound "CCOC(=O)c1c(CN2CCOCC2)nc2cc(OC)c(OC)cc2c1-c1ccccc1OC" is ____.
Output: 153 to 154 °C

Input: Consider the compound shown here: CCOC(=O)C(=CNCC1CCCO1)C(=O)c1ccc(Br)cc1Cl (stereo not given) What is its recorded melting point?
Output: 136 °C

Input: What value of melting point has been recorded for this entry: CCOC(=O)CC(NC(=O)c1ccccc1)C(=O)c1cccs1 (stereo not given)
Output: 75 °C

Input: Given the entry "Cc1cccc(-c2[nH]c(C(C)C)nc2-c2cccc(-c3ccsc3)c2)n1" , report its measured melting point.
Output: 83 to 85 °C

Input: Return reported melting point; argument: "CN1N=C(c2ccc(F)cc2)c2ccc(F)cc2CS1(=O)=O"
Output: 205 to 206 °C

Input: Consider the compound "COc1cc(C=Cc2ccccc2)cc(OC)c1" and give its measured melting point.
Output: 56.4 °C

Input: GET /values?readout=melting point&item= "Fc1cccc(F)c1-c1nnc(-c2ccccc2Br)nn1"
Output: 168 °C

Input: Item under review: "CCOC(=O)COc1nccc(-c2ccccn2)n1" . Reported melting point?
Output: 48 to 53 °C

Input: Give its melting point value. Item: "Cc1ccc2nc(-c3ccccc3C#N)n(C)c(=O)c2c1"
Output: 157 to 158 °C

Input: Any idea what its melting point is? The compound is "CCOCc1nc2c(N)nc3cc(OCc4cccc(OC)c4)ccc3c2n1CC(C)(C)NS(C)(=O)=O"
Output: 221 to 222 °C

Input: Give the measured melting point of "O=C(O)c1ncsc1-c1ccccc1" .
Output: 189 to 190 °C

Input: Value lookup for melting point; key = "CCOC(=O)c1nc(SC)[nH]c(=O)c1OCc1ccccc1"
Output: 109 to 110 °C
